- experimental.details: Binding affinity against Ins(1,4,5)P3 receptor prepared from purified rat brain cerebellum
- Format: tissue-based
quantity.kind: pIC50
By convention, pIC50 is the negative base-10 log of a molar concentration.

Record summary for O=P(O)(O)O[C@@H]1[C@H](O)[C@H](O)[C@@H](OP(=O)(O)O)[C@H](OP(=O)(O)O)[C@H]1O [INS(1,4,5)P3] : reported pIC50 = 8.00
